Experiment: Selectivity ratio of IC50 for human A549 cells to IC50 for human A549/TAX cells
Format: functional
reported-endpoint: Ratio IC50

compound | result-number
CC(=O)O[C@H]1C(=O)[C@@]2(C)[C@H]([C@H](OC(=O)c3ccccc3)[C@]3(O)C[C@H](OC(=O)[C@H](O)[C@@H](NC(=O)c4ccccc4)c4ccccc4)C(C)=C1C3(C)C)[C@]1(OC(C)=O)CO[C@@H]1C[C@@H]2O | 0.02
CCCCCCCC(SC(=O)c1cc(OC)c(OC)c(OC)c1)c1cc(OC)c2c(c1OC)/C(=N/O)C=C/C2=N\O (stereo unspecified) | 7.96
CCCCCCCCC(SC(=O)c1ccc(OC)c(OC)c1)c1cc(OC)c2c(c1OC)/C(=N/O)C=C/C2=N\O (stereo unspecified) | 10.9
CCCCCCCCCC(SC(=O)c1cc(OC)c(OC)c(OC)c1)c1cc(OC)c2c(c1OC)/C(=N/O)C=C/C2=N\O (stereo unspecified) | 15.9
CCCCCCCCC(SC(=O)/C=C/c1ccccc1)c1cc(OC)c2c(c1OC)/C(=N/O)C=C/C2=N\O (stereo unspecified) | 9.13
COc1cccc2c1C(=O)c1c(O)c3c(c(O)c1C2=O)C[C@@](O)(C(=O)CO)C[C@@H]3O[C@H]1C[C@H](N)[C@H](O)[C@H](C)O1.Cl [DOXORUBICIN HYDROCHLORIDE] | 0.04
